- System: Pylorus ligated rats
- TEST_PROTOCOL: Pylorus ligated ulcers
- Type: in vivo, albino rats
- CONDITION_CONTEXT: 25 mg/kg, 4 hours after pylorus ligation
Record form. Attribute: Inhibition %. Fill in for each entry.
Answers are plain numbers, in %.

Lab note: each compound below needs its Inhibition % filled in.
1. COC(=O)C1OC(Oc2ccc3c(=O)cc(-c4ccccc4)oc3c2)C(O)C(O)C1O (stereo not drawn) [CGL]
2. COC(=O)C1OC(Oc2cc3oc(-c4ccccc4)cc(=O)c3cc2OC)C(O)C(O)C1O (stereo not drawn) [OA-5]
3. CN1CCN(CCCOc2cc(O)c3c(=O)cc(-c4ccccc4)oc3c2)CC1 [NMC-2]
4. COc1c(OC(=O)c2ccc(C)cc2)cc2oc(-c3ccccc3)cc(=O)c2c1O [ORPM-1]
5. COc1c(OC2OC(CO)C(O)C(O)C2O)cc2oc(-c3ccccc3)cc(=O)c2c1O (stereo not drawn) [OA-G]
6. CN1CCN(CCCCOc2cc(O)c3c(=O)cc(-c4ccccc4)oc3c2)CC1 [NMC-3]

1: 60.17; 2: 75.07; 3: 43.47; 4: 16.87; 5: 30.16; 6: 33.49
